- Target or system: Yer064c (UniProt P40041)
- Sequence: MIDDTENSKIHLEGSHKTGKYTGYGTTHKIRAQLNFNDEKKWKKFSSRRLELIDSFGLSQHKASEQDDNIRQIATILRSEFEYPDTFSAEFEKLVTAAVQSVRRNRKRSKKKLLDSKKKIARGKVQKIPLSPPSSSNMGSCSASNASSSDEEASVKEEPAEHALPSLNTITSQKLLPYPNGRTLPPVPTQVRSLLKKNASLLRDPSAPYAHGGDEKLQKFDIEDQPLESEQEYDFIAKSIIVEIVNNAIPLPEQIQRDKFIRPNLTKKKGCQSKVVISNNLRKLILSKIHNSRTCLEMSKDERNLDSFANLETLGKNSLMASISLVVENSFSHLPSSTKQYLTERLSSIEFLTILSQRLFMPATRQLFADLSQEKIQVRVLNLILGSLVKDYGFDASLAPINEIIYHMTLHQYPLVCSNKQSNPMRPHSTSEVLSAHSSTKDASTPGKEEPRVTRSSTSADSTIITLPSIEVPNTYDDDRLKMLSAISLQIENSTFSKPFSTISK
- Assay explanation: PBM E-score (8-mer binding enrichment) (E-score (-0.5 to 0.5)); higher = stronger / more preferred TF binding
- Conditions: protein concentration: 200 nM; construct: GST-full length
Over roughly 33,000 sequences, “E-score (-0.5 to 0.5)” has its median near -0.036; the highest 2% begin near 0.37. This is one part of a sample in which the highest values are shown more often than they occur.
Quick rule: PBM E-score of at least 0.3 means 1.0, below that means 0.0.

Is reported PBM E-score greater than or equal to 0.3 here: AGTGACAA
0.0

Is reported PBM E-score greater than or equal to 0.3 here: CTGAATCA
1.0

Is reported PBM E-score greater than or equal to 0.3 here: ATGAATCG
1.0

Is reported PBM E-score greater than or equal to 0.3 here: AGTCGTTG
1.0

Is reported PBM E-score greater than or equal to 0.3 here: GAGCCATC
1.0

Is reported PBM E-score greater than or equal to 0.3 here: ATGAATCC
0.0

Is reported PBM E-score greater than or equal to 0.3 here: AGTGACTA
1.0

Is reported PBM E-score greater than or equal to 0.3 here: CTGAATTA
0.0

Is reported PBM E-score greater than or equal to 0.3 here: AGTCGTGA
1.0

Is reported PBM E-score greater than or equal to 0.3 here: CCAACACC
0.0

Is reported PBM E-score greater than or equal to 0.3 here: AGTGACCG
0.0

Is reported PBM E-score greater than or equal to 0.3 here: CGTGACGA
0.0

---

- Target or system: Yer064c (UniProt P40041)
- Sequence: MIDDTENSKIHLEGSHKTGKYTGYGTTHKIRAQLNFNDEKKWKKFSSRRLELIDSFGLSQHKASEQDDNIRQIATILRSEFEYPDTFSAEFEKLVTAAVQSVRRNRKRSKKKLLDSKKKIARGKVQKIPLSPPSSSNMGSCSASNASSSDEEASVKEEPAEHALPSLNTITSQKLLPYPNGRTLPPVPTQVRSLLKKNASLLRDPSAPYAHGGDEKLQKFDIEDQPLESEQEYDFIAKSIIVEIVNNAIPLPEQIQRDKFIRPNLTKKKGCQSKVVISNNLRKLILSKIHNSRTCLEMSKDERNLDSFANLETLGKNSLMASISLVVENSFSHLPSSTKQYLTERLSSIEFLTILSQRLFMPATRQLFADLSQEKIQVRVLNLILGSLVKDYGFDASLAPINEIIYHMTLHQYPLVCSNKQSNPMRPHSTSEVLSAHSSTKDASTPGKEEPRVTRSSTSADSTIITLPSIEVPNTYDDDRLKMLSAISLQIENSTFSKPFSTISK
- Assay explanation: PBM E-score (8-mer binding enrichment) (E-score (-0.5 to 0.5)); higher = stronger / more preferred TF binding
- Conditions: protein concentration: 200 nM; construct: GST-full length
The full ranking holds about 33,000 sequences; the median of “E-score (-0.5 to 0.5)” is about -0.036, and the highest 2% start at about 0.37. The entries come from a sample that favours the highest values as a whole.
Catalogue of sequences with associated PBM E-score
// response body must contain only the number

- Residue sequence: "AGTCAGGC"
  PBM E-score: 0.449
- Residue sequence: "GATCACCC"
  PBM E-score: 0.00825
- Residue sequence: "AACCACCT"
  PBM E-score: 0.0325
- Residue sequence: "CGTCAGGC"
  PBM E-score: -0.19
- Residue sequence: "CGTCAGGA"
  PBM E-score: -0.0376
- Residue sequence: "AATCACCT"
  PBM E-score: 0.438
- Residue sequence: "AATCACCG"
  PBM E-score: 0.42
- Residue sequence: "TATCACCA"
  PBM E-score: -0.0277
- Residue sequence: "AAGCACCG"
  PBM E-score: -0.164
- Residue sequence: "ACACTCGC"
  PBM E-score: 0.111

Now for the sequence whose PBM E-score we want.
For the sequence ACTCAGGG , give its measured PBM E-score value.
0.311

---

- Target or system: Yer064c (UniProt P40041)
- Sequence: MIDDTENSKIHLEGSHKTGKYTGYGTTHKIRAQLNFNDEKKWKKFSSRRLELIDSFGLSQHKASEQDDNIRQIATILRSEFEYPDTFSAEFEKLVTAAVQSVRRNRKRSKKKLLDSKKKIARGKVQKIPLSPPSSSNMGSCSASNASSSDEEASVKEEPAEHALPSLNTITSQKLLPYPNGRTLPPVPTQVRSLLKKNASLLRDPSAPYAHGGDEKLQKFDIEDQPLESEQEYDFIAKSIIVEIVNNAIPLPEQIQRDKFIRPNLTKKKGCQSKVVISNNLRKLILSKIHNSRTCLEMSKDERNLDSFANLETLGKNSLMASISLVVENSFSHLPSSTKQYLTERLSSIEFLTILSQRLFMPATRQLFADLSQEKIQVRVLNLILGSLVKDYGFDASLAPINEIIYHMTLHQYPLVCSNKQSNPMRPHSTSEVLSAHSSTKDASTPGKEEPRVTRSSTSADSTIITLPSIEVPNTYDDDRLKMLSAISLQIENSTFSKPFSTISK
- Assay explanation: PBM E-score (8-mer binding enrichment) (E-score (-0.5 to 0.5)); higher = stronger / more preferred TF binding
- Conditions: protein concentration: 200 nM; construct: GST-full length
The full ranking holds about 33,000 sequences; the median of “E-score (-0.5 to 0.5)” is about -0.036, and the highest 2% start at about 0.37. Only a selection was taken, and the highest values are over-represented in it overall.
Measured quantity: PBM E-score

For the sequence AAATCACG , give its measured PBM E-score value.
0.264

For the sequence GAGAACGA , give its measured PBM E-score value.
-0.0613

For the sequence AAGATTTC , give its measured PBM E-score value.
0.0103

For the sequence CCCCACCC , give its measured PBM E-score value.
-0.0582

---

- Target or system: Yer064c (UniProt P40041)
- Sequence: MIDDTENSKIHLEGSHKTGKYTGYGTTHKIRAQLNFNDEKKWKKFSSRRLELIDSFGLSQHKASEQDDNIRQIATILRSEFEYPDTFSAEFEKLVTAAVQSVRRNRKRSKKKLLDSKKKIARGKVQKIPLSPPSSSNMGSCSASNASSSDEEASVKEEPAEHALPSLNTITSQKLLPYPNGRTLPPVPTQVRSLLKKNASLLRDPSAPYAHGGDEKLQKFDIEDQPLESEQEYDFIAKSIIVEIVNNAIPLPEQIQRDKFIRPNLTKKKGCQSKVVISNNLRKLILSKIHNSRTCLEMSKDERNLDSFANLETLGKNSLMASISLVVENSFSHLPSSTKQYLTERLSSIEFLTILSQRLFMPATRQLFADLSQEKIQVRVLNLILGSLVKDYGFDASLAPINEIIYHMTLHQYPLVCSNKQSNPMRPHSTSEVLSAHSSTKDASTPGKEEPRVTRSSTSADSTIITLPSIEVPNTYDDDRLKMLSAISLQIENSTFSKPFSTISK
- Assay explanation: PBM E-score (8-mer binding enrichment) (E-score (-0.5 to 0.5)); higher = stronger / more preferred TF binding
- Conditions: protein concentration: 200 nM; construct: GST-full length
The full ranking holds about 33,000 sequences; the median of “E-score (-0.5 to 0.5)” is about -0.036, and the highest 2% start at about 0.37. For the sample, the highest values were picked, then their nearest neighbours and some sequences at random.
Measured quantity: PBM E-score
// response body must contain only the number

- Residue sequence: "CGATGAAA"
  PBM E-score: 0.0671
- Residue sequence: "ATTTAGTC"
  PBM E-score: 0.444
- Residue sequence: "CTTTAATC"
  PBM E-score: 0.29
- Residue sequence: "ATATCCAC"
  PBM E-score: -0.0172
- Residue sequence: "CCACTAAA"
  PBM E-score: -0.0544
- Residue sequence: "CTTTAGTC"
  PBM E-score: 0.416

Find the measured PBM E-score of AGACTAAC with Yer064c (UniProt P40041) as test system.
0.413

Find the measured PBM E-score of ATTTAGTG with Yer064c (UniProt P40041) as test system.
0.127

Find the measured PBM E-score of AGACTAGC with Yer064c (UniProt P40041) as test system.
0.251

Find the measured PBM E-score of CATCGCAC with Yer064c (UniProt P40041) as test system.
-0.211

Find the measured PBM E-score of GCTGTAGA with Yer064c (UniProt P40041) as test system.
-0.0534

Find the measured PBM E-score of AGGCTACC with Yer064c (UniProt P40041) as test system.
-0.0969

Find the measured PBM E-score of ATTTAATA with Yer064c (UniProt P40041) as test system.
0.117
